system: human V2 receptor (Homo sapiens, UniProt P30518)
Construct: expressed in transfected cells; host or cells: CHO K1 (ATCC) expressing firefly luciferase under a CRE-responsive promoter
Sequence (P30518 whole entry): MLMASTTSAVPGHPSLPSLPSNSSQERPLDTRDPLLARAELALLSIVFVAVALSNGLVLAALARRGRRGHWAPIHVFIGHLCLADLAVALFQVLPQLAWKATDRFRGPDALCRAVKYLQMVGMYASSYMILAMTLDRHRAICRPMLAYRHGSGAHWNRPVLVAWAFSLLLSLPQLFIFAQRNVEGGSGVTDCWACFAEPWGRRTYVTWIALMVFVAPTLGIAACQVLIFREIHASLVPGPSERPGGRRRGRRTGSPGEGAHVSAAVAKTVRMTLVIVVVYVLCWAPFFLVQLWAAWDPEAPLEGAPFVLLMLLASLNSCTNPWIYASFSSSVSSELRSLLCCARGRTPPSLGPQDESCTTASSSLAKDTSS
test-summary: Cellular in vitro assay for determining vasopressin receptor activity, V2 receptor cell line (CHO, CRE-luciferase)
Format: cell-based
conditions-used: CHO cell line transfected with human V2 receptor; [Arg8]-vasopressin at EC50 concentration, 3 hours; read-out: IC50 hV2
measured-endpoint: pIC50
Answers are plain numbers, as −log10 of the molar value.

Consider the worked cases shown below.
COC(C)(C)C(=O)Nc1ncccc1-n1cnc(Cn2nc(-c3ccc(Cl)cc3)n(C[C@H](O)C(F)(F)F)c2=O)n1 [Example 137]; 5.87
O=c1n(Cc2ncn(-c3cccnc3NCC3CS(=O)(=O)C3)n2)nc(-c2ccc(Cl)cc2)n1C[C@H](O)C(F)(F)F [Example 72]; 4.49
O=C(NCC1CC1)c1cccc(Cl)c1-n1cnc(Cn2nc(-c3ccc(Cl)cc3)n(C[C@@H](O)C(F)(F)F)c2=O)n1 [Example 394]; 5.36

Could you tell me pIC50 for each of these compounds? They are listed below.
1. CS(=O)(=O)CC(=O)Nc1cccnc1-n1cnc(Cn2nc(-c3ccc(Cl)cc3)n(C[C@H](O)C(F)(F)F)c2=O)n1 [Example 49]
2. NC1(CNc2ccncc2-n2cnc(Cn3nc(-c4ccc(Cl)cc4)n(C[C@H](O)C(F)(F)F)c3=O)n2)CC1 [Example 3]
3. O=C(NCC1CC1)c1ccccc1-n1cnc(Cn2nc(-c3ccc(Cl)cc3)n(C[C@H](O)C(F)(F)F)c2=O)n1 [Example 325]

stdout:
5.96
6.14
6.92

stdin: # pIC50 lookup, item CCCC(=O)Nc1ncccc1-n1cnc(Cn2nc(-c3ccc(Cl)cc3)n(C[C@H](O)C(F)(F)F)c2=O)n1 [Example 146]
stdout: 6.26
